Hello, the source for this data is patent US7566718B2, in case you need it.

Target: human CXCR3 (N-delta 4) (Homo sapiens, UniProt P49682)
Construct: CD8 leader (N); Flag tag; expressed in transfected cells; membrane preparation
Assay: Human CXCR3 (N-delta 4) scintillation proximity assay (SPA), [125I] IP-10 binding to Ba/F3-hCXCR3 membranes
Conditions: IC50 rating; [125I] IP-10 displacement, human CXCR3; read-out: IC50
Measurement type: IC50

Solved cases below.
>>> reported("CC[C@H]1CN(c2ncc(NS(C)(=O)=O)cc2Cl)CCN1C1CCN(Cc2ccc(Cl)cc2OC)CC1")
"< 25 nM"
>>> reported("CC[C@H]1CN(c2ncc(NS(C)(=O)=O)cc2Cl)CCN1C1CCN(C(=O)c2ccc(Cl)cc2)CC1")
"> 100 nM"
>>> reported("C[C@@H]1CN(c2ncc(Nc3c(NCC(F)(F)F)c(=O)c3=O)cc2Cl)[C@@H](C)CN1C1CCN(Cc2ccc(Cl)cc2Cl)CC1")
"> 100 nM"

Could you share which IC50 value was measured for CC[C@H]1CN(c2ncc(NC3=NS(=O)(=O)N=C3NC3CC3)cc2Cl)CCN1C1CCN([C@H](CO)c2ccc(Cl)cc2)CC1 ? < 25 nM

Which IC50 value is on record for CC1CCCC(N2CCC(N3C[C@H](C)N(c4ncc(Nc5c(NCC(F)(F)F)c(=O)c5=O)cc4Cl)C[C@H]3C)CC2)C1 (stereo partly drawn) [Compound 163] ? > 100 nM

I'd like to know its IC50. The molecule in question is CC[C@H]1CN(c2ncc(N(S(C)(=O)=O)S(C)(=O)=O)cc2Cl)CCN1C1CCN(Cc2ccc(Cl)cc2F)CC1 > 100 nM

Dear colleague, I am looking for the recorded IC50 of the following molecule: C[C@H]1CN(c2nc(Cl)c(N)cc2Cl)CCN1C1CCN(Cc2ccc(Cl)cc2F)CC1 > 100 nM

Which IC50 is listed for CC[C@H]1CN(c2ncc(NC3=NS(=O)(=O)N=C3N(C)C)cc2Cl)CCN1C1CCN(Cc2ccc(F)c(F)c2)CC1 ? > 100 nM

# query: IC50 of entry C[C@@H]1CN(c2ncc(Nc3c(NCC(F)(F)F)c(=O)c3=O)cc2Cl)[C@@H](C)CN1C1CCN(Cc2ccc(Br)cc2)CC1 > 100 nM

====

Biological target: human CXCR3 (N-delta 4) (Homo sapiens)
Construct: CD8 leader (N); Flag tag; expressed in transfected cells; membrane preparation
Sequence (P49682 5-368 limits assumed): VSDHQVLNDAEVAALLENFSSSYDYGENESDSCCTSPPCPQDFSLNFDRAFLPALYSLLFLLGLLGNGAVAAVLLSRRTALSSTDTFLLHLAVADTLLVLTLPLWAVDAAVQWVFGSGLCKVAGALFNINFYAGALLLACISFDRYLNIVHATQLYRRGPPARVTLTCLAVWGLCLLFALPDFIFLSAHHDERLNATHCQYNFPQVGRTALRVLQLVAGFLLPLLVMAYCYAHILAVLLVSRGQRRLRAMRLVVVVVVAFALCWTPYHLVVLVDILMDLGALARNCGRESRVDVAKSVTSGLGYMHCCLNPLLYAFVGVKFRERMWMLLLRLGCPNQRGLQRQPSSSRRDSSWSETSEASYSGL
Test: Human CXCR3 (N-delta 4) scintillation proximity assay (SPA), [125I] IP-10 binding to Ba/F3-hCXCR3 membranes
Conditions: IC50 rating; [125I] IP-10 displacement, human CXCR3; read-out: IC50
pIC50: −log10 of the molar value.
Measurement type: pIC50

Below: 3 compounds and their reported pIC50.
>>> reported("CC[C@H]1CN(c2ncc(NC3=NS(=O)(=O)N=C3NCC(=O)O)cc2Cl)CCN1C1CCN(Cc2ccc(Cl)cc2F)CC1 [Compound 280]")
"< 7.00"
>>> reported("C[C@@H]1CN(c2ncc(Nc3c(NCC(F)(F)F)c(=O)c3=O)cc2Cl)[C@@H](C)CN1C1CCN(Cc2cc3ccccc3o2)CC1 [Compound 133]")
"< 7.00"
>>> reported("CC[C@H]1CN(c2ncc(Nc3c(NC4CCC4)c(=O)c3=O)cc2Cl)CCN1C1CCN(Cc2ccc(OC(F)(F)F)cc2)CC1 [Compound 83]")
"> 7.60"

Return reported pIC50; argument: CC[C@H]1CN(c2ncc(Nc3c(NCC(N)=O)c(=O)c3=O)cc2Cl)CCN1C1CCN([C@H](CO)c2ccc(Cl)cc2)CC1 [Compound 103] 7.00 to 7.60

Query: pIC50; subject: CC[C@H]1CN(c2ccc(Nc3c(NC4CC4)c(=O)c3=O)cc2Cl)CCN1C1CCN(Cc2ccc(Cl)cc2F)CC1 [Compound 82] > 7.60

I would be grateful if you could share the reported pIC50 for C[C@@H]1CN(c2ncc(Nc3c(NCC(F)(F)F)c(=O)c3=O)cc2Cl)[C@@H](C)CN1C1CCN(Cc2ccco2)CC1 [Compound 142] . < 7.00

Request the reported pIC50 associated with C[C@H]1CN(c2ncc(NS(C)(=O)=O)cc2Cl)CCN1C1CCN(Cc2ccc(C(F)(F)F)cc2F)CC1 [Compound 64] < 7.00

// query pIC50 value for entry CC[C@H]1CN(c2ncc(NS(C)(=O)=O)cc2Cl)CCN1C1CCN(C(C(N)=O)c2ccc(Cl)cc2)CC1 (stereo partly shown) [Compound 12] > 7.60

Form field: reported pIC50 of CC[C@H]1CN(c2ncc(NS(C)(=O)=O)cc2Cl)CCN1C1CCN(Cc2ccc(F)c(F)c2)CC1 [Compound 21] > 7.60

Can you look up the measured pIC50 of Cc1cc(OCc2ccccc2)cc(C)c1C(=O)N1CCC(N2C[C@H](C)N(c3ncc(Nc4c(NCC(F)(F)F)c(=O)c4=O)cc3Cl)C[C@H]2C)CC1 [Compound 140] for me? < 7.00

Could you share which pIC50 value was measured for CC[C@H]1CN(c2ncc(N/C(=N/C#N)NC3CC3)cc2Cl)CCN1C1CCN(Cc2ccc(Cl)cc2F)CC1 [Compound 209] ? 7.00 to 7.60

What does the data say about its pIC50? Entry: CC[C@H]1CN(c2ncc(NC3=NS(=O)(=O)N=C3NC(CO)C(N)=O)cc2Cl)CCN1C1CCN(Cc2ccc(Cl)cc2F)CC1 (stereo partly shown) [Compound 276] < 7.00

Dear colleague, I am looking for the recorded pIC50 of the following compound: CC[C@H]1CN(c2ncc(NC3=NS(=O)(=O)N=C3NC3CC3)cc2Cl)CCN1C1CCN(Cc2ccc(Cl)cc2C#N)CC1 [Compound 260] 7.00 to 7.60

====

Target: human CXCR3 (N-delta 4) (Homo sapiens)
Construct: CD8 leader (N); Flag tag; expressed in transfected cells; membrane preparation
Experiment: Human CXCR3 (N-delta 4) scintillation proximity assay (SPA), [125I] IP-10 binding to Ba/F3-hCXCR3 membranes
Conditions: value given in the text as example; read-out: IC50 value
Measurement type: IC50 (nM)
Report as a plain number; the unit nM is understood.

Under human CXCR3 (N-delta 4) (Homo sapiens): IC50 value of CC[C@H]1CN(c2ncc(NS(C)(=O)=O)cc2Cl)CCN1C1CCN(Cc2ccc(Cl)cc2OC)CC1 [Compound 1] ? 0.8

====

Measured IC50, listed per entry for reference.
Target: human CXCR3 (N-delta 4) (Homo sapiens)
Construct: CD8 leader (N); Flag tag; expressed in transfected cells; membrane preparation
Test: Human CXCR3 (N-delta 4) scintillation proximity assay (SPA), [125I] IP-10 binding to Ba/F3-hCXCR3 membranes
Details: IC50 rating; [125I] IP-10 displacement, human CXCR3; read-out: IC50

Some compounds with known IC50 results, for comparison:
>>> reported("CC[C@H]1CN(c2ncc(Nc3c(NC4CC4)c(=O)c3=O)cc2Cl)CCN1C1CCN([C@H](CO)c2ccc(Cl)cc2)CC1 [Compound 71]")
"< 25 nM"
>>> reported("COc1ccc(CN2CCC(N3CCN(c4ncc(NS(C)(=O)=O)cc4Cl)C[C@@H]3C)CC2)c(F)c1 [Compound 56]")
"> 100 nM"
>>> reported("C[C@H]1CN(c2ncc(NS(C)(=O)=O)cc2Cl)CCN1C1CCN(CCCc2ccc(Cl)cc2)CC1 [Compound 57]")
"> 100 nM"

Consider the compound COc1ccccc1CN1CCC(N2C[C@H](C)N(c3ncc(Nc4c(NCC(F)(F)F)c(=O)c4=O)cc3Cl)C[C@H]2C)CC1 [Compound 154] and give its measured IC50. > 100 nM

====

Biological target: human CXCR3 (N-delta 4) (Homo sapiens, UniProt P49682)
Construct: CD8 leader (N); Flag tag; expressed in transfected cells; membrane preparation
Sequence (P49682 5-368 limits assumed): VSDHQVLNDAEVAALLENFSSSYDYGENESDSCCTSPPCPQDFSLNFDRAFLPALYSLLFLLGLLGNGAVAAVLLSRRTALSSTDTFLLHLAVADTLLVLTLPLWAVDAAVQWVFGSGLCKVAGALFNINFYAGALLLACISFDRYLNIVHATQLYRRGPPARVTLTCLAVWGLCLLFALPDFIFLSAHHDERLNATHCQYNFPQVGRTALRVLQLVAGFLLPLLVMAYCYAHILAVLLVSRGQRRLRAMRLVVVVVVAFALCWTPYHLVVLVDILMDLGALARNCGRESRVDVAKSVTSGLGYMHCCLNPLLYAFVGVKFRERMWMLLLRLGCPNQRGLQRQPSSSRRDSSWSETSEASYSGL
Experiment: Human CXCR3 (N-delta 4) scintillation proximity assay (SPA), [125I] IP-10 binding to Ba/F3-hCXCR3 membranes
Conditions: IC50 rating; [125I] IP-10 displacement, human CXCR3; read-out: IC50
Measurement type: IC50

# annotated cases, reported IC50 shown
>>> reported("C[C@@H]1CN(C2CCN(Cc3ccc(Cl)cc3)CC2)[C@@H](C)CN1c1ncc(NC(=O)NCC(F)(F)F)cc1Cl")
"> 100 nM"
>>> reported("CC[C@H]1CN(c2ncc(NC3=NS(=O)(=O)N=C3N3CCOCC3)cc2Cl)CCN1C1CCN(Cc2ccc(OC(F)(F)F)cc2)CC1")
"25 to 100 nM"
>>> reported("C[C@@H]1CN(c2ncc(Nc3c(NCC(F)(F)F)c(=O)c3=O)cc2Cl)[C@@H](C)CN1C1CCN(C2CCC(c3ccccc3)CC2)CC1 (stereo partly drawn) [Compound 146]")
"> 100 nM"
>>> reported("CC[C@H]1CN(c2ncc(Nc3c(C(C)C)c(=O)c3=O)cc2Cl)CCN1C1CCN(Cc2ccc(C#N)cc2)CC1")
"< 25 nM"
>>> reported("CC[C@H]1CN(c2ncc(Nc3c(NC4CC4)c(=O)c3=O)cc2Cl)CCN1C1CCN(Cc2ccc(Cl)cc2C(N)=O)CC1")
"< 25 nM"

Attention now shifts to the item below.
// map C[C@@H]1CN(c2ncc(Nc3c(NCC(F)(F)F)c(=O)c3=O)cc2Cl)[C@@H](C)CN1C1CCN(Cc2cccc(C(F)(F)F)c2)CC1 to recorded IC50 (system: human CXCR3 (N-delta 4) (Homo sapiens, UniProt P49682)) > 100 nM
